The measured values listed here are drawn from patent US20150352108A1.

Exercise: for every item that follows, state its recorded IC50.
# tested_system: TBK1 (Homo sapiens)
# Construct: His-tag; made in house; host or cells: Sf9 insect cells
# Sequence (Q9UHD2 whole entry): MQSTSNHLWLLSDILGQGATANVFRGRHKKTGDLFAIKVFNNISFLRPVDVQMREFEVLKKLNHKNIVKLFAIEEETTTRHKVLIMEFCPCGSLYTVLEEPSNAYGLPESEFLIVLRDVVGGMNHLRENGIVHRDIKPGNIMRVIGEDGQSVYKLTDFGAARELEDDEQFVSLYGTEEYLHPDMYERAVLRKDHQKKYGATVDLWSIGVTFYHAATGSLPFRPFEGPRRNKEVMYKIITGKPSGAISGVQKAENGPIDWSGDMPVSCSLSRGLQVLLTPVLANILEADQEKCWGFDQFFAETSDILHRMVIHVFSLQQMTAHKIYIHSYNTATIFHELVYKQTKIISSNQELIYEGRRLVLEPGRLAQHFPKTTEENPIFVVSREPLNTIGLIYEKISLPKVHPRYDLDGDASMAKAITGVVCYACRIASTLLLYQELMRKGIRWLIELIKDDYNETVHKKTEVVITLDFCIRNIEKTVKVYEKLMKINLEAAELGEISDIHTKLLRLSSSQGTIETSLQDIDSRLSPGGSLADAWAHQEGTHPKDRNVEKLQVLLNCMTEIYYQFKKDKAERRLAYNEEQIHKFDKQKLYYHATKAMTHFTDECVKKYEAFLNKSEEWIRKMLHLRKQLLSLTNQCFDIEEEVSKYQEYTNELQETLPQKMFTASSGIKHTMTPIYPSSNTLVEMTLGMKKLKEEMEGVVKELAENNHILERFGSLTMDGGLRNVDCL
# protocol_summary: In-vitro TBK1 kinase assay ([γ33]ATP filter-plate)
# Assay type: biochemical
# test_parameters: text bins; read-out: IC50 for inhibition of the kinase activity of TBK1

Problem: # input molecule: "COc1ccc(-c2ccnc(Nc3ccc(OC)c(OCCN4CCOCC4)c3)n2)cc1C#N" ; wanted: its IC50
Solution: 10 to 100 nM

Problem: What value of measured IC50 is listed for "COc1cc(Nc2nccc(-c3ccc(OC4CCNCC4)c(C#N)c3)n2)ccc1N1CCOCC1" ?
Solution: 10 to 100 nM

Problem: Bench note: what IC50 did "COc1cc(-c2ccnc(Nc3ccc(N4CCOCC4)cc3)n2)cc(C#N)c1OC1CCOCC1" show?
Solution: < 10 nM

Problem: Requested field: IC50. Item: "N#Cc1cc(-c2ccnc(Nc3ccc(F)c(OCCN)c3)n2)ccc1OC1CCOCC1"
Solution: < 10 nM

Problem: Given "N#Cc1cc(-c2ccnc(Nc3cccc(CN4CCN(CCO)CC4)c3)n2)ccc1OC1CCOCC1" , state its recorded IC50.
Solution: < 10 nM

Problem: Find the recorded IC50 belonging to "COC1CN(Cc2ccc(Nc3nccc(-c4ccc(NC(=O)C5CC5)c(C#N)c4)n3)cc2)C1" and report it.
Solution: 10 to 100 nM

Problem: So what's the measured IC50 for this one? "N#Cc1cc(-c2ccnc(Nc3ccc(CS(=O)(=O)NCCCN4CCOCC4)cc3)n2)ccc1OC1CCOCC1"
Solution: < 10 nM

Problem: Name the reported IC50 value associated with the molecule N#Cc1cc(-c2ccnc(Nc3ccc(N4CCOCC4)cc3)n2)ccc1OCC1CCCNC1 (centres unmarked)
Solution: 10 to 100 nM

Problem: May I ask what IC50 has been recorded for "C[C@H](O)C(=O)N1CCC(Oc2ccc(-c3ccnc(Nc4ccc(CN5CCOCC5)cc4)n3)cc2C#N)CC1" ?
Solution: < 10 nM

Problem: Which IC50 reading was recorded for the molecule "CCN(CC)CCN(CC)C(=O)Cc1ccc(Nc2nccc(-c3ccc(NC(=O)C(C)C)c(C#N)c3)n2)cc1" ?
Solution: < 10 nM

Problem: Any idea what IC50 was measured for "COc1cc(-c2ccnc(Nc3ccc(N4CCOCC4)cc3)n2)cc(C#N)c1OC1CCN(C(=O)[C@@H](C)O)CC1" ?
Solution: < 10 nM

Problem: Fill in: IC50 of "CCC(=O)Nc1ccc(-c2ccnc(Nc3ccc(N4CCOCC4)cc3)n2)cc1C#N" is ___
Solution: < 10 nM

Problem: Quick one: IC50 for "COCCNCc1ccc(Nc2nccc(-c3ccc(NC(=O)C4CC4)c(C#N)c3)n2)cc1OC" ?
Solution: < 10 nM

Problem: Which value of IC50 has been reported for "N#Cc1cc(-c2ccnc(Nc3ccc(N4CCOCC4)cc3)n2)ccc1NC(=O)C1CCC1" in the records?
Solution: 10 to 100 nM
